# system: human PPARalpha (Homo sapiens)
# Construct: human PPARalpha receptor (amino acids S167-Y468)
# Sequence (Q07869 167-468): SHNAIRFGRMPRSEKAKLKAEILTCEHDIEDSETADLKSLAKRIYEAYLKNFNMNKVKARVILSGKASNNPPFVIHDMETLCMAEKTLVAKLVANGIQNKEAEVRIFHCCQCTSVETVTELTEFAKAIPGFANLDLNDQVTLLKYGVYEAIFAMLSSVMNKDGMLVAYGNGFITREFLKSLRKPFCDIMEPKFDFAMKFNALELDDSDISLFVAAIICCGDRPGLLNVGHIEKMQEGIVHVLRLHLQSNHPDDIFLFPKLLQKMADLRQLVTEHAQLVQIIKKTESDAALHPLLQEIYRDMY
# method: Cellular PPARalpha assay (stably transfected HEK luciferase reporter cell line)
# particulars: GR-GAL4-humanPPARalpha-LBD, 24 h
Give measured pEC50 for each item. Keep answers brief.
Remember, pEC50 is on a log scale: it is -log10 of the molar concentration.

[Q] I would be grateful if you could share the reported pEC50 for "CC(C)c1oc(-c2ccc(C(F)(F)F)cc2)nc1COC[C@@H]1CCC[C@H](COC(C)(C)C(=O)O)C1" .
[A] 7.71

[Q] I would be grateful if you could share the reported pEC50 for "CCc1oc(-c2ccc(C)c(C)c2)nc1COC[C@@H]1CCC[C@H](COC(C)(C)C(=O)O)C1" .
[A] 8.72

[Q] I would be grateful if you could share the reported pEC50 for "CC(C)c1oc(-c2ccc(C(C)(C)C)cc2)nc1COC[C@@H]1CCC[C@H](COC(C)(C)C(=O)O)C1" .
[A] 7.31
